target: trypanothione synthetase of L. infantum (LiTryS) (Leishmania infantum, UniProt A4I2Z3); assay: TryS activity screening assay on recombinant LiTryS; format: biochemical; settings: read-out: LiTryS activity [% at 30 μM]
Sequence (A4I2Z3 entry or part of it): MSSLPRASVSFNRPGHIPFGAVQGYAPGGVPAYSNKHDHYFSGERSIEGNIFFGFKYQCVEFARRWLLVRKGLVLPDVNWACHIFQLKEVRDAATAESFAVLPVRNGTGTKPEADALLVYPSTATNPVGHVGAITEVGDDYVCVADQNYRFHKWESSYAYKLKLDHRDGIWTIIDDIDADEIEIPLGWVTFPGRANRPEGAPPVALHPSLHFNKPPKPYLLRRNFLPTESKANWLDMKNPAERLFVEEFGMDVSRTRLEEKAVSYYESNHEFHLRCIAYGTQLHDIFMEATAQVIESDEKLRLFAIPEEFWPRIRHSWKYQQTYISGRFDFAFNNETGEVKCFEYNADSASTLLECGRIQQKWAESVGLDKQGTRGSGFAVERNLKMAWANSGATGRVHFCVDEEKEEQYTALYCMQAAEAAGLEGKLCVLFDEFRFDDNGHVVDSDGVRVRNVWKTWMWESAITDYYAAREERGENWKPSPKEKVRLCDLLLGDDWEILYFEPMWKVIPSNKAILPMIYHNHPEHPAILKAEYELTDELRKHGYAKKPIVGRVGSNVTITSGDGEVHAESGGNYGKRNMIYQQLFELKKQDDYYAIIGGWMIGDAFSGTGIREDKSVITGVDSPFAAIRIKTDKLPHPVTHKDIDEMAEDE
Short version: activity at 30 µM at least 90% is y, less is n.

[
  {
    "COMPOUND": "CON=C1CCC(=O)N(CC(=O)N2CCCC2)c2ccccc21 (mixture of isomers)",
    "ASSIGNED CLASS": "n"
  },
  {
    "COMPOUND": "CNCCNC(=O)CN1C(=O)Cc2c([nH]c3ccc(Cl)cc23)-c2ccc(Cl)cc21",
    "ASSIGNED CLASS": "n"
  },
  {
    "COMPOUND": "Cl.O=C(CN1C(=O)CCCc2ccccc21)N1CCNCC1",
    "ASSIGNED CLASS": "y"
  }
]

Input line: Is activity at 30 µM for CC(C)(C)OC(=O)NCCCCNC(=O)CN1C(=O)CCCc2ccccc21 at or above 90%?
Output line: n

Input line: Is activity at 30 µM for CC(C)(C)OC(=O)NC1CCN(C(=O)CN2C(=O)CCCc3ccccc32)CC1 at or above 90%?
Output line: y

Input line: Is activity at 30 µM for CN(CCNC(=O)CN1C(=O)Cc2c([nH]c3ccc(C(F)(F)F)cc23)-c2ccc(Cl)cc21)C(=O)OC(C)(C)C [10c] at or above 90%?
Output line: n

Input line: Is activity at 30 µM for CO/N=C1\CCC(=O)Nc2ccccc21 at or above 90%?
Output line: y

Recorded values, source paper PMC10688702.
